Below are compounds with their IC50 as measured on OXA-11 (Pseudomonas aeruginosa).
Sequence (Q06778 21-266): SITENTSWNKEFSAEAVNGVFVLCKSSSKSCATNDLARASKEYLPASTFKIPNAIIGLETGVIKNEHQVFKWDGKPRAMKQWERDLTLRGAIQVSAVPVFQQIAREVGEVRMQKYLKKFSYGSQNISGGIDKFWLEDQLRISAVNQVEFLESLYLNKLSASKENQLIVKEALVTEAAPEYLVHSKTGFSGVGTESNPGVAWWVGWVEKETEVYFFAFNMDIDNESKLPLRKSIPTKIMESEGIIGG
Give the quantity in nM, number only.

Incoming: Look up IC50 of NC(=O)CONC(=O)c1ccn(C2=CC3CN(C2)C(=O)N3OS(=O)(=O)[O-])n1.[Na+] (stereo not shown) [Example 52] and report it.
Outgoing: 130

Incoming: Look up IC50 of CC(=O)c1cnn(C2=CC3CN(C2)C(=O)N3OS(=O)(=O)[O-])c1.[Na+] (stereo not shown) [Example 40] and report it.
Outgoing: 95

Incoming: Look up IC50 of [2H]c1nn(C2=CC3CN(C2)C(=O)N3OS(=O)(=O)[O-])c([2H])c1[2H].[Na+] (stereo not shown) [Example 43] and report it.
Outgoing: 39

Incoming: Look up IC50 of O=C1N2CC(n3cc(CO)nn3)=CC(C2)N1OS(=O)(=O)O (stereo not shown) [Example 64] and report it.
Outgoing: 96

* * *

Give measured pIC50 for each item. Keep answers brief.
Value format note: pIC50 is -log10 of concentration (mol/L); just state the number.

Incoming: # return pIC50 for NC(=O)CNCc1cn(C2=CC3CN(C2)C(=O)N3OS(=O)(=O)O)nn1 (stereo not drawn) [Example 66] , test system: TEM-1 (Escherichia coli)
Sequence (P62593 24-286 limits assumed): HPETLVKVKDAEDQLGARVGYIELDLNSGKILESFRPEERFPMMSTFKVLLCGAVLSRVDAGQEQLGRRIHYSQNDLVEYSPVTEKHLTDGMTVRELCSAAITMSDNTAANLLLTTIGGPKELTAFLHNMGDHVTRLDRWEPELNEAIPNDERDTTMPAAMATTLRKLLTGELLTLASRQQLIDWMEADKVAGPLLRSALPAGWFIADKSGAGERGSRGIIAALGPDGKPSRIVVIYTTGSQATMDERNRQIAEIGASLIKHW
Outgoing: 9.44

Incoming: # return pIC50 for O=C(NOCCO)c1ccn(C2=CC3CN(C2)C(=O)N3OS(=O)(=O)[O-])n1.[Na+] (stereo not drawn) [Example 47] , test system: TEM-1 (Escherichia coli)
Outgoing: 8.82

Incoming: # return pIC50 for NC(=O)Cc1ccn(C2=CC3CN(C2)C(=O)N3OS(=O)(=O)[O-])n1.[Na+] (stereo not drawn) [Example 45] , test system: TEM-1 (Escherichia coli)
Outgoing: 8.85

Incoming: # return pIC50 for O=C(CCO)Nc1ccn(C2=CC3CN(C2)C(=O)N3OS(=O)(=O)[O-])n1.[Na+] (stereo not drawn) [Example 51] , test system: TEM-1 (Escherichia coli)
Outgoing: 9.52

Incoming: # return pIC50 for CC(=O)c1cnn(C2=CC3CN(C2)C(=O)N3OS(=O)(=O)[O-])c1.[Na+] (stereo not drawn) [Example 40] , test system: TEM-1 (Escherichia coli)
Outgoing: 9.46

Incoming: # return pIC50 for O=C1N2CC(n3cc(CO)cn3)=CC(C2)N1OS(=O)(=O)[O-].[Na+] (stereo not drawn) [Example 71] , test system: TEM-1 (Escherichia coli)
Outgoing: 8.85

* * *

Give measured MIC for each item. Keep answers brief.
system: E. cloacae UFR85; experiment: MIC of compound alone, broth microdilution; type: cell-based; conditions: Enterobacter cloacae; strain UFR85: E. cloacae; TEM-1, CTX-M-15, AmpC; read-out: MIC compounds of the invention alone
Give the figure together with its unit, number first.

Incoming: Look up MIC of O=C1N2CC(n3cncn3)=CC(C2)N1OS(=O)(=O)[O-].[Na+] (stereo not shown) and report it.
Outgoing: 4 µg/mL

Incoming: Look up MIC of O=C1N2CC(n3nccn3)=CC(C2)N1OS(=O)(=O)O (stereo not shown) and report it.
Outgoing: 4 µg/mL

Incoming: Look up MIC of "O=C1N2CC(n3ccnn3)=C[C@H](C2)N1OS(=O)(=O)O" and report it.
Outgoing: 1 µg/mL

Incoming: Look up MIC of O=C1N2CC(n3ccsc3=O)=CC(C2)N1OS(=O)(=O)[O-].[Na+] (stereo not shown) and report it.
Outgoing: 4 µg/mL
